# Test system: SV40 immortalized human corneal epithelial cell strains
# Procedure Details: Cell toxicity, viable cell number by β-hexosaminidase activity, corneal epithelial cells
# Type: cell-based
# Condition Description: 24 h, concentration for survival rate of 50%, exposure time 24 hr, Table 5
Recorded Metric: EC50 (µM)
Numbers only; they are read as µM.

[Q] Lab request: please report EC50 under test system SV40 immortalized human corneal epithelial cell strains for O=C(O)Cc1ccccc1Nc1c(Cl)cccc1Cl [Diclofenac Sodium]
[A] 630
